Data provenance is ChEMBL document CHEMBL1681740.

system: UniProtKB P11229
experimentNotes: Positive allosteric modulation at human muscarinic M1 receptor expressing CHO cells assessed as potentiation of acetylcholine-induced calcium mobilization by FLIPR assay
Assay type: functional, cell-based
valueKind: IP (µM)

> print(dat)
                                   compound            system  quantitativereadout
1  N#Cc1ccc2c(c1)CCN(Cc1cc(C(=O)O)c(=O)n3ccccc13)C2  UniProtKB P11229                 0.61
2  O=C(O)c1cc(CN2CCc3ccccc3C2c2ccccc2)c2ccccn2c1=O (configuration not stated)  UniProtKB P11229                 0.56
3  O=C(O)c1cc(CN2CCC(n3ccnn3)CC2)c2ccccn2c1=O  UniProtKB P11229                  1.7

I: O=C(O)c1cc(CN2CCC(c3cnccn3)CC2)c2ccccn2c1=O
II: O=C(O)c1cc(CN2CCC(c3cccc(F)n3)CC2)c2ccccn2c1=O
Q: I'd appreciate it if you could identify which of I and II has the greater IP. Answer = label.
Result: I
(I: 11 µM, II: 2.2 µM)

---

experimentNotes: Plasma protein binding in rat
Format: ADME, cell-free
measurementSetup: read-out: PPB (converted)
valueKind: fraction unbound

> print(dat)
                                   compound         valuekind  quantitativereadout
1  O=C(O)c1cc(CN2CCC(n3cnc4ccccc43)CC2)c2ccccn2c1=O  fraction unbound                 0.24

A: O=C(O)c1cc(CN2CCC(c3nc4ccccc4[nH]3)CC2)c2ccccn2c1=O
B: O=C(O)c1cc(CN2CCc3cc(Cl)ccc3C2)c2ccccn2c1=O
C: Cc1ccc(C2CCN(Cc3cc(C(=O)O)c(=O)n4ccccc34)CC2)cc1
D: O=C(O)c1cc(CN2CCc3ccccc3C2c2ccncc2)c2ccccn2c1=O (stereo not given)
Q: Provide the items ranked by increasing fraction unbound. Would you mind listing the labels in the order asked for?
Result: B, D, C, A

---

system: Muscarinic acetylcholine receptor M1 (Homo sapiens) (UniProt P11229)
Sequence (whole entry): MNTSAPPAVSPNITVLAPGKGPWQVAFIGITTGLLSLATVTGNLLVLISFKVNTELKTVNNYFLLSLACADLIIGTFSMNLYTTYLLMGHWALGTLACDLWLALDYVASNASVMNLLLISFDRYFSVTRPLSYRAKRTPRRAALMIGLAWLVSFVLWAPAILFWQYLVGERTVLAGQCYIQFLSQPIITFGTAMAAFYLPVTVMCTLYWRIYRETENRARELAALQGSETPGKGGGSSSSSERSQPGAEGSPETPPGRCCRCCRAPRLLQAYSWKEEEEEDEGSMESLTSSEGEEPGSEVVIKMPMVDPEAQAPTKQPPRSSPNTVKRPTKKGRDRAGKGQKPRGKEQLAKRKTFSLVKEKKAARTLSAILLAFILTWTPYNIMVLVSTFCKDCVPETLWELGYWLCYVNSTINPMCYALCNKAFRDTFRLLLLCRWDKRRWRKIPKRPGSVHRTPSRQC
experimentNotes: Positive allosteric modulation at human muscarinic M1 receptor expressing CHO cells assessed as potentiation of acetylcholine-induced calcium mobilization by FLIPR assay
Assay type: functional, cell-based
valueKind: IP (µM)

As a guide, the following entries are already answered.
> print(dat)
                                   molecule  units  quantitativereadout
1  Cn1c(C2CCN(Cc3cc(C(=O)O)c(=O)n4ccccc34)CC2)nc2ccccc21     µM                   30
2   O=C(O)c1cc(CN2CCc3ccncc3C2)c2ccccn2c1=O     µM                  1.7
3  O=C(O)c1cc(CN2CCC(c3ccc(F)nc3)CC2)c2ccccn2c1=O     µM                  2.1
4  O=C(O)c1cc(CN2CCc3cc(Br)ccc3C2)c2ccccn2c1=O     µM                 0.63
5  O=C(O)c1cc(CN2CCc3ccc(Cl)cc3C2)c2ccccn2c1=O     µM                 0.63

P: O=C(O)c1cc(CN2CCc3cc(F)ccc3C2)c2ccccn2c1=O
Q: O=C(O)c1cc(CN2CCC(c3nc4ccccc4[nH]3)CC2)c2ccccn2c1=O
Q: Min IP? P | Q Answer = label.
Result: Q

P: O=C(O)c1cc(CN2CCc3c(Cl)cccc3C2)c2ccccn2c1=O
Q: O=C(O)c1cc(CN2CCc3ccccc3C2c2ccccc2F)c2ccccn2c1=O (stereo unspecified)
R: O=C(O)c1cc(CN2CCc3ccccc3C2)c2ccccn2c1=O
Q: Order field: IP | Direction: descending (largest first) Would you mind listing the labels in the order asked for?
Result: R, P, Q
(R: 1.7 µM, P: 0.85 µM, Q: 0.15 µM)
